Molecular target: Beta-secretase 1 (Homo sapiens) (UniProt P56817)
Sequence (P56817 whole entry): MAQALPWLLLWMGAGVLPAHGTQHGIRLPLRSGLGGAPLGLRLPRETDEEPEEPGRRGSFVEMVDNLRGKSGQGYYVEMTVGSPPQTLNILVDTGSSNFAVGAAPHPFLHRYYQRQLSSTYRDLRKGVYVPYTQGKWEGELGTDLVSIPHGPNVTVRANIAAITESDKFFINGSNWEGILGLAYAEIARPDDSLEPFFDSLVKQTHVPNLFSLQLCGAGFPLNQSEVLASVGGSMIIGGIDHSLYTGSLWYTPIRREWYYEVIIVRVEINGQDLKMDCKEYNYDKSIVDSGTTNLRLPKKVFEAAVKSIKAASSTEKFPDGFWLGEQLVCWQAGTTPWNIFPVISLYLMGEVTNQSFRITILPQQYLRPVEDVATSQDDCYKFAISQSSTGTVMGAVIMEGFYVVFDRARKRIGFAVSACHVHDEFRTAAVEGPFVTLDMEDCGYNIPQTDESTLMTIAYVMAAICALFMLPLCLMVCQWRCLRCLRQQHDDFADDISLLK
Test: Inhibition of human BACE1 at 10 uM incubated for 60 mins using rhodamine-EVNLDAEFK-quencher substrate by FRET assay
Listed compounds paired with reported inhibition
Reply with just the number (in %).

{"Smiles Data": "O=C(c1c(F)ccc(F)c1F)n1nc(OCCN2CCCCC2)c2ccccc21", "inhibition [%]": 14.3}

Exercise: For the compound O=C(c1cccc(F)c1F)n1nc(OCCN2CCCC2)c2ccccc21 , what inhibition is on record?
Solution: 14

Exercise: And O=C(c1cccc2ccccc12)n1nc(OCCCN2CCCC2)c2ccccc21 ?
Solution: 20

----------
Target: Cannabinoid receptor (Mus musculus) (UniProt P47746+P47936)
Sequence (P47746 whole entry, looked up): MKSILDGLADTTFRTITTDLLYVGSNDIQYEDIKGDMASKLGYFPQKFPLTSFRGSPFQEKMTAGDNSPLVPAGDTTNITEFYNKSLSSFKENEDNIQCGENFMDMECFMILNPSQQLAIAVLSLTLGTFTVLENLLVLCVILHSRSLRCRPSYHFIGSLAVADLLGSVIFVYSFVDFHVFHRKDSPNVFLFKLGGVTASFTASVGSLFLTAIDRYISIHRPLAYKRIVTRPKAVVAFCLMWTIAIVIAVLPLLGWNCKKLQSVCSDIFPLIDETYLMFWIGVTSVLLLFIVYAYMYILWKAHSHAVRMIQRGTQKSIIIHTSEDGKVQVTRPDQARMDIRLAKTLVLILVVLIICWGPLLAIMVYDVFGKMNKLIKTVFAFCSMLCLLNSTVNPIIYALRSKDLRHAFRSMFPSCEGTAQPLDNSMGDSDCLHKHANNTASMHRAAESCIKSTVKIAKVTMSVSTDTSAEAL
Sequence (P47936 whole entry, looked up): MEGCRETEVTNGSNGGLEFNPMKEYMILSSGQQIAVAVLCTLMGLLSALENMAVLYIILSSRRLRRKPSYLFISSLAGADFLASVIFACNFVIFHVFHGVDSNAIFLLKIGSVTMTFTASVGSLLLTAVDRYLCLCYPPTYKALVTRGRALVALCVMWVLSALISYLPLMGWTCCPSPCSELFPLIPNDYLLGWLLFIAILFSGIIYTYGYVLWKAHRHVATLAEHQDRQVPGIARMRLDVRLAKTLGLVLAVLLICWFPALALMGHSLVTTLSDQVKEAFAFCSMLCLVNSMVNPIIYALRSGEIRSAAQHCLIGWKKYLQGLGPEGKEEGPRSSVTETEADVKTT
Assay: Agonist activity at cannabinoid receptor in ICR mouse vas deferens assessed as inhibition of electrically induced contractions at 8.1 x 10^-6 M after 10 mins relative to control
Type: protein assay
Measured Metric: inhibition
Could you write the number and then its unit?

{"Smiles Data": "Cc1c(C(=O)c2cccc3ccccc23)c2cccc3c2n1[C@H](CN1CCOCC1)CO3", "Measured Metric": "inhibition", "Measured Value": "71.4%"}

Exercise: Record request: inhibition value, item O=C(c1cccc(Cl)c1Cl)n1nc(OCCN2CCCCC2)c2ccccc21
Solution: 80.5%

Exercise: Query O=C(c1ccc2ccccc2c1)n1nc(OCCCN2CCCCC2)c2ccccc21 next
Solution: 17.2%

Exercise: Repeat for the following compound: O=C(c1ccccc1OCc1ccccc1)n1nc(OCCN2CCCC2)c2ccccc21
Solution: 32.5%

Exercise: Item: COc1cc(C(=O)n2nc(OCCN3CCCC3)c3ccccc32)cc(OC)c1OC
Solution: 49.7%

Exercise: Now the compound COc1ccc(CC(=O)n2nc(OCCN3CCCC3)c3ccccc32)cc1
Solution: 50.3%

Exercise: Queued: O=C(c1cccc(F)c1F)n1nc(OCCN2CCCC2)c2ccccc21
Solution: 37.5%

Exercise: Try the compound O=C(c1cccc(Cl)c1F)n1nc(OCCCN2CCCCC2)c2ccccc21
Solution: 54.7%

Exercise: Would you mind doing O=C(Cc1ccc(Cl)cc1)n1nc(OCCCN2CCCCC2)c2ccccc21 as well?
Solution: 67.4%

Exercise: Okay, and O=C(c1cccc2ccccc12)n1nc(OCCN2CCCCC2)c2ccccc21 ?
Solution: 69.2%

Exercise: Also O=C(c1ccccc1OCc1ccccc1)n1nc(OCCCN2CCCCC2)c2ccccc21 , if possible.
Solution: 74.4%
